This section lists log(10'3/IC50) readings for Adenosine kinase (Homo sapiens) (UniProt P55263).
Reply with the value as a number alone.

C[C@H]1O[C@@H](n2cc(I)c3c(SCc4ccccc4)ncnc32)[C@H](O)[C@@H]1O
3
C[C@H]1O[C@@H](n2cc(I)c3c(Cl)ncnc32)[C@H](O)[C@@H]1O
5.52

Tested on Adenosine kinase (Homo sapiens) (UniProt P55263): `[N-]=[N+]=NC[C@H]1O[C@@H](n2cc(Br)c3c(Cl)ncnc32)[C@H](O)[C@@H]1O` . Observed log(10'3/IC50): 4

Tested on Adenosine kinase (Homo sapiens) (UniProt P55263): `CC[C@H]1O[C@@H](n2cc(Br)c3c(N)ncnc32)[C@H](O)[C@@H]1O` . Observed log(10'3/IC50): 3.3

Tested on Adenosine kinase (Homo sapiens) (UniProt P55263): `CNc1ncnc2c1c(I)cn2[C@@H]1O[C@H](CO)[C@@H](O)[C@H]1O` . Observed log(10'3/IC50): 2.92

Tested on Adenosine kinase (Homo sapiens) (UniProt P55263): `CSc1cn([C@@H]2O[C@H](C)[C@@H](O)[C@H]2O)c2ncnc(Cl)c12` . Observed log(10'3/IC50): 4.15

Tested on Adenosine kinase (Homo sapiens) (UniProt P55263): `C[C@H]1O[C@@H](n2cc(I)c3c(SCc4ccc([N+](=O)[O-])cc4)ncnc32)[C@H](O)[C@@H]1O` . Observed log(10'3/IC50): 2.7

Tested on Adenosine kinase (Homo sapiens) (UniProt P55263): `NC[C@H]1O[C@@H](n2cc(I)c3c(N)ncnc32)[C@H](O)[C@@H]1O` . Observed log(10'3/IC50): 6.22

Tested on Adenosine kinase (Homo sapiens) (UniProt P55263): `CC[C@H]1O[C@@H](n2cc(I)c3c(N)ncnc32)[C@H](O)[C@@H]1O` . Observed log(10'3/IC50): 4.22

Tested on Adenosine kinase (Homo sapiens) (UniProt P55263): `C[C@H]1O[C@@H](n2cc(C#N)c3c(N)ncnc32)[C@H](O)[C@@H]1O` . Observed log(10'3/IC50): 3.51

Tested on Adenosine kinase (Homo sapiens) (UniProt P55263): `NC[C@H]1O[C@@H](n2cc(I)c3c(Cl)ncnc32)[C@H](O)[C@@H]1O` . Observed log(10'3/IC50): 7

Tested on Adenosine kinase (Homo sapiens) (UniProt P55263): `[N-]=[N+]=NC[C@H]1O[C@@H](n2cc(Br)c3c(N)ncnc32)[C@H](O)[C@@H]1O` . Observed log(10'3/IC50): 4.2

Tested on Adenosine kinase (Homo sapiens) (UniProt P55263): `N#Cc1cn([C@@H]2O[C@H](CO)[C@@H](O)[C@H]2O)c2ncnc(N)c12` . Observed log(10'3/IC50): 3.51

* * *

System under test: Adenosine kinase (Homo sapiens) (UniProt P55263)
Sequence (P55263 2-362 limits assumed): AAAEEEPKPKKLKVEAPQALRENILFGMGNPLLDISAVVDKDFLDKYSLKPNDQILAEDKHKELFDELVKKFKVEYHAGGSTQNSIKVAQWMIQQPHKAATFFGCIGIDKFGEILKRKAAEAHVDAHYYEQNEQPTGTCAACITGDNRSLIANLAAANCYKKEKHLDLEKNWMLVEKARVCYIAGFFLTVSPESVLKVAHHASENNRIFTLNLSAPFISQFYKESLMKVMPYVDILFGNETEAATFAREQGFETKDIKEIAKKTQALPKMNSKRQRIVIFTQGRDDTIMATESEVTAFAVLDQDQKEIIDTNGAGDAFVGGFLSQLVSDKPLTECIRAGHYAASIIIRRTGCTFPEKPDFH
Recorded log(10'3/IC50) for the following molecules
Reply with the value as a number alone.

Example cases with answers are listed next.
C[C@H]1O[C@@H](n2cc(I)c3c(S)ncnc32)[C@H](O)[C@@H]1O
2.19
CSc1cn([C@@H]2O[C@H](C)[C@@H](O)[C@H]2O)c2ncnc(N)c12
2.87
CSc1ncnc2c1c(I)cn2[C@@H]1O[C@H](C)[C@@H](O)[C@H]1O
4.35
C=CCSc1ncnc2c1c(I)cn2[C@@H]1O[C@H](C)[C@@H](O)[C@H]1O
2.55
[N-]=[N+]=NC[C@H]1O[C@@H](n2cc(I)c3c(Cl)ncnc32)[C@H](O)[C@@H]1O
5.05

Tested on Adenosine kinase (Homo sapiens) (UniProt P55263): `Cc1cn([C@@H]2O[C@H](C)[C@@H](O)[C@H]2O)c2ncnc(Cl)c12` . Observed log(10'3/IC50): 3.27

Tested on Adenosine kinase (Homo sapiens) (UniProt P55263): `Nc1ncnc2c1c(Br)cn2[C@@H]1O[C@H](CO)[C@@H](O)[C@H]1O` . Observed log(10'3/IC50): 3.92

Tested on Adenosine kinase (Homo sapiens) (UniProt P55263): `C[C@H]1O[C@@H](n2cc(Br)c3c(Cl)ncnc32)[C@H](O)[C@@H]1O` . Observed log(10'3/IC50): 4.3

Tested on Adenosine kinase (Homo sapiens) (UniProt P55263): `COC[C@H]1O[C@@H](n2cc(I)c3c(N)ncnc32)[C@H](O)[C@@H]1O` . Observed log(10'3/IC50): 2.92

Tested on Adenosine kinase (Homo sapiens) (UniProt P55263): `CCCCSc1ncnc2c1c(I)cn2[C@@H]1O[C@H](C)[C@@H](O)[C@H]1O` . Observed log(10'3/IC50): 3
